System: primary cultures (neurons) from cerebral cortices of fetal Wistar rats
Test: Biological Test 2: antagonism of the neuroprotective effect by MTA treatment (MTT)
Assay type: cell-based, rat
Conditions: 0.75 mM MTA added 30 minutes before test compound, glutamate
Param label: returns satisfied when Survival Rate (%) (Compound: 1 μl & MTA treatment) < 30%, returns not satisfied otherwise, including exact equality.

**Q:** For this compound, is Survival Rate (%) (Compound: 1 μl & MTA treatment) lower than 30%? Cc1c(C)c(OCC(=O)N(C)C2CCN(CCN3CCOCC3)CC2)c(C)c(C)c1N [Compound 16]
**A:** not satisfied

**Q:** Could you please tell me whether Survival Rate (%) (Compound: 1 μl & MTA treatment) recorded for Cc1c(C)c(OCC(=O)N(C)C2CCN(C(=O)c3ccccc3)CC2)c(C)c(C)c1N [Compound 8] is less than 30%?
**A:** satisfied

**Q:** State whether 30% exceeds Survival Rate (%) (Compound: 1 μl & MTA treatment) recorded for Cc1c(C)c(OCC(=O)N(C)C2CCN(CCc3ccccc3)CC2)c(C)c(C)c1N [Compound 6] .
**A:** satisfied

**Q:** Hi there! Is Survival Rate (%) (Compound: 1 μl & MTA treatment) for Cc1cc(C)c(NCC(=O)N(C)C2CCN(c3ccc(F)cc3)CC2)c(C)c1N [Compound 39] below 30%, do you know?
**A:** satisfied

**Q:** Please indicate whether the reported Survival Rate (%) (Compound: 1 μl & MTA treatment) of Cc1c(C)c(OCC(=O)N(C)C2CCN(C(C)Cc3ccccc3)CC2)c(C)c(C)c1N (centres unmarked) [Compound 22] is strictly below 30%.
**A:** not satisfied

---

System: primary cultures (neurons) from cerebral cortices of fetal Wistar rats
Test: Biological Test 2: antagonism of the neuroprotective effect by MTA treatment (MTT)
Assay type: cell-based, rat
Conditions: 0.75 mM MTA added 30 minutes before test compound, glutamate
# Survival Rate (%) (Compound: 1 μl & MTA treatment) annotations
Numbers only; they are read as %.

Cc1c(C)c(OCC(=O)N(C)C2CCN(CC(O)c3ccccc3)CC2)c(C)c(C)c1N (centres unmarked) [Compound 11] :: 56

**Q:** // Survival Rate (%) (Compound: 1 μl & MTA treatment) lookup, key: Cc1c(C)c(N)c(C)c(OCC(=O)N(C)C2CCN(Cc3ccc(C#N)cc3)CC2)c1C [Compound 34]
**A:** 21

**Q:** So what does the record say about Survival Rate (%) (Compound: 1 μl & MTA treatment) for Cc1c(C)c(OCC(=O)N(C)C2CCN(CC3CC3)CC2)c(C)c(C)c1N [Compound 12] ?
**A:** 33

**Q:** Form field: reported Survival Rate (%) (Compound: 1 μl & MTA treatment) of Cc1c(C)c(OC(C)C(=O)N(C)C2CCN(CCN3CCOCC3)CC2)c(C)c(C)c1N (centres unmarked) [Compound 25]
**A:** 16

---

Test system: cerebral edema (water content of cerebral hemisphere), Wistar rats
Experiment: Biological Test 5: cerebral edema suppressing effect
Assay type: in vivo
Details: iv, 144 h; 1 mg/kg intravenously just after the operation; rat; post-TBI day 6; read-out: Cerebral edema suppressing rate (%)
propertyMeasured: inhibition in vivo at 1 mg/kg (%)
Lab book: enter the figure in %, no units written.

Example entries and their recorded answers appear below.
CCCCN1CCC(N(C)C(=O)C(C)Oc2c(C)c(C)c(N)c(C)c2C)CC1 (stereo not shown) :: 10.6
Cc1c(C)c(OCC(=O)N(C)C2CCN(CCOc3ccccc3)CC2)c(C)c(C)c1N :: 18.7
Cc1c(C)c(OC(C)C(=O)N(C)C2CCN(CCN3CCOCC3)CC2)c(C)c(C)c1N (stereo not shown) :: 19.1
Cc1c(C)c(OCC(=O)N(C)C2CCN(Cc3ccc(C#N)cc3)CC2)c(C)c(C)c1N :: 22.1
Cc1c(C)c(OCC(=O)N(C)C2CCN(CC(=O)N(C)c3ccccc3)CC2)c(C)c(C)c1N :: 14.7
Cc1c(C)c(C)c(OCC(=O)N(C)C2CCN(CCc3ccccc3)CC2)c(N)c1C :: 13.8

Let us examine a further case.
**Q:** Request - read-out inhibition in vivo at 1 mg/kg | tested on cerebral edema (water content of cerebral hemisphere), Wistar rats | molecule Cc1c(C)c(OCC(=O)N(C)C2CCN(C(=O)c3ccccc3)CC2)c(C)c(C)c1N
**A:** 14
